assayed_system: Prostaglandin G/H synthase 2 (Homo sapiens, UniProt P35354)
Sequence (P35354 whole entry): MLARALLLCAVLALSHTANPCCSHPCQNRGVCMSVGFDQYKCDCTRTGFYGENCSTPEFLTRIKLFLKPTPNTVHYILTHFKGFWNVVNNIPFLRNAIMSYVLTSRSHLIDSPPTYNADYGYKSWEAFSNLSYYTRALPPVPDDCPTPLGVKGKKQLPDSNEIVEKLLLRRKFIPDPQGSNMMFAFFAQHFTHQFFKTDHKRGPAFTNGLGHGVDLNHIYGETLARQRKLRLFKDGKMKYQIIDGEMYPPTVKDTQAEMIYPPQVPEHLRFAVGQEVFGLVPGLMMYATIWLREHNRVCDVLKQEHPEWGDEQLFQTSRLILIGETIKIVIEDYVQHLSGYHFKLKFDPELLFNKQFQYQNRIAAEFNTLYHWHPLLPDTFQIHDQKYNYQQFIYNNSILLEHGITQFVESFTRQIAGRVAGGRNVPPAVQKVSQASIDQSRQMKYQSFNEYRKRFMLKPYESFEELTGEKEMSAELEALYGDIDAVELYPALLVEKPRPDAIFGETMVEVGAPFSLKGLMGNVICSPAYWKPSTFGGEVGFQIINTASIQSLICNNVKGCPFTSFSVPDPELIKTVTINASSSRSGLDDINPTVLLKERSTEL
Format: functional
Answer each item with its documented log10 of IC50.
Would you kindly interpret these values as log10 of IC50 expressed in µM?

Worked cases, log10 of IC50 given:
INSERT INTO assay_data (compound, value_kind, recorded_result) VALUES
  ('CCOC(=O)/C=C/c1cc(CC)cc(C(=O)c2ccccc2)c1', 'log10 of IC50', 0.70),
  ('CCc1cc(/C=C/C(N)=O)cc(C(=O)c2ccccc2)c1', 'log10 of IC50', 0.26),
  ('CC(C)=Cc1cc(/C=C/S(N)(=O)=O)cc(C(=O)c2ccccc2)c1', 'log10 of IC50', -0.01),
  ('CC(C(=O)O)c1cc(/C=C/S(C)(=O)=O)cc(C(=O)c2ccccc2)c1 (configuration not stated)', 'log10 of IC50', 0.99),
  ('NS(=O)(=O)/C=C/c1ccc(C(=O)c2ccccc2)cc1CO', 'log10 of IC50', 0.92),
  ('CCc1cc(/C=C/S(N)(=O)=O)cc(C(=O)c2ccccc2)c1', 'log10 of IC50', -0.70);

Ask: Provide log10 of IC50, recorded with Prostaglandin G/H synthase 2 (Homo sapiens, UniProt P35354), of N#Cc1cc(/C=C/S(N)(=O)=O)cc(C(=O)c2ccccc2)c1
Reply: 0.75
